Hey, just so you know, these numbers are from patent US12492193B2.

target: mutant CFTR (Homo sapiens, UniProt P13569, DEL508-508); assay: Fluorescence (HS-YFP) assay for CFTR activity, corrector assay; conditions: CFBE41o- and FRT cells with stable expression of mutant CFTR, 24 h compound treatment
Sequence (P13569 with tags, fused parts or gaps DEL508-508): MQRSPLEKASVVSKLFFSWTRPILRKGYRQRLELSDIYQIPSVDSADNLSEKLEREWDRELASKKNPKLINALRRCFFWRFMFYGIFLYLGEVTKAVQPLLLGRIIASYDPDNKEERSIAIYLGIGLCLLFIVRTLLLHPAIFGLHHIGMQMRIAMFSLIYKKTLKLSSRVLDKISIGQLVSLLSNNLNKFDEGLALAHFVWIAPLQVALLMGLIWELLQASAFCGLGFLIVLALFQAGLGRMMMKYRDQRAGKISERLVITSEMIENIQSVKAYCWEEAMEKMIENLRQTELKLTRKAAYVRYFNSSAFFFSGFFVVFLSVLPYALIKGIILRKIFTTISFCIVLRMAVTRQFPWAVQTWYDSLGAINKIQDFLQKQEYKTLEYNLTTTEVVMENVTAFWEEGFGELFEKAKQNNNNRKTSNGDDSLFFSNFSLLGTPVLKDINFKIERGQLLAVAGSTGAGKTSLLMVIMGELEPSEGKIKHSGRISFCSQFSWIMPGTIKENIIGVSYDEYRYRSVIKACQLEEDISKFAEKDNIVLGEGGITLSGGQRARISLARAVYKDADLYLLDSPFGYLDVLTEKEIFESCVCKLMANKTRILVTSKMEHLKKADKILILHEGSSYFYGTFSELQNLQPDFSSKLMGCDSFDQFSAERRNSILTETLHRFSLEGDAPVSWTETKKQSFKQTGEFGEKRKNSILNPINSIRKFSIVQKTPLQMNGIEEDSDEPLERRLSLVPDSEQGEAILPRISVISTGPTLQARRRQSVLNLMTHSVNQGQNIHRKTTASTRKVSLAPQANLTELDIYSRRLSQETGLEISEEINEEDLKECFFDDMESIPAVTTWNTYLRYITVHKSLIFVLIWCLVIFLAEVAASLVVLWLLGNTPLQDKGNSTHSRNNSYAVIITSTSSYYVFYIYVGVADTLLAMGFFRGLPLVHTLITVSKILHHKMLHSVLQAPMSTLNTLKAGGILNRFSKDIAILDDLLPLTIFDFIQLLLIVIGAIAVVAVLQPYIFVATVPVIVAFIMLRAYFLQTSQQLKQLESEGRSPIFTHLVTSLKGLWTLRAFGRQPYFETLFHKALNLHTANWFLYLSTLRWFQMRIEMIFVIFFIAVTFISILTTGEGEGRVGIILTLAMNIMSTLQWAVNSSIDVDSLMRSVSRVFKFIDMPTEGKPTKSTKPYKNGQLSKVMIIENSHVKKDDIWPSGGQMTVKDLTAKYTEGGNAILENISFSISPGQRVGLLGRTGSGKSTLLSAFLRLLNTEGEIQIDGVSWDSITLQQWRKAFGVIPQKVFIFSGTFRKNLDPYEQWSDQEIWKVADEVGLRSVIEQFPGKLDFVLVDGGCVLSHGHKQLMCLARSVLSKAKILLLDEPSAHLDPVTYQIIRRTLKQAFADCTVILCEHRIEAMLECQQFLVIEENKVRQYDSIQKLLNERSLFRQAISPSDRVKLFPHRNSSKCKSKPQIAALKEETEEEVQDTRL
Record form. Attribute: EC50. Fill in for each entry.

Problem: Report EC50 from mutant CFTR (Homo sapiens, UniProt P13569, DEL508-508) testing of Cc1nc2ncc(N(C)C(=O)c3cccc(-n4nc(C(F)(F)F)c(Cl)c4C)c3)cc2o1 [compound 261]
Solution: 1 to 2 µM

Problem: GET EC50 | system: mutant CFTR (Homo sapiens, UniProt P13569, DEL508-508) | item: Cc1nc2cc(Cl)c(N(C)C(=O)c3cccc(-n4nc(C(F)(F)F)c(Cl)c4C4CC4)c3)cc2o1 [compound 139]
Solution: < 1 µM

Problem: Lab note: record EC50 of CN(C(=O)c1cccc(-n2nc(C(F)(F)F)c(Cl)c2OCC23CC(C(=O)O)(C2)C3)c1)c1ccc2c(c1)OC(F)(F)O2 [compound 258] tested on mutant CFTR (Homo sapiens, UniProt P13569, DEL508-508).
Solution: < 1 µM

Problem: Give reported EC50 for CN(C(=O)c1cccc(-n2nc(C(F)(F)F)cc2-c2ccccc2C(F)(F)F)c1)c1ccc2c(c1)OCO2 [compound 176] (mutant CFTR (Homo sapiens, UniProt P13569, DEL508-508))
Solution: < 1 µM

Problem: Name the recorded EC50 of Cc1nn(-c2cccc(C(=O)N(C)c3cccc4c3OC(F)(F)O4)c2)c(C)c1Cl [compound 026] , assay system mutant CFTR (Homo sapiens, UniProt P13569, DEL508-508).
Solution: > 2 µM

Problem: GET EC50 | system: mutant CFTR (Homo sapiens, UniProt P13569, DEL508-508) | item: Cc1c(F)c(C(F)(F)F)nn1-c1cccc(C(=O)N(C)c2ccc3c(c2)OCO3)c1 [compound 126]
Solution: < 1 µM

Problem: Provide EC50, tested on mutant CFTR (Homo sapiens, UniProt P13569, DEL508-508), for Cc1nn(-c2cccc(C(=O)N(C)c3ccc4c(c3)OCO4)c2)c(C=O)c1Cl [compound 112] .
Solution: < 1 µM
